Listing of IC50 toward Lysine-specific histone demethylase 1A (Homo sapiens, UniProt O60341), each taken from a published source.

Solved entries:
molecule: Cn1cc2cc(-c3c(-c4ccc(C#N)c(F)c4)cc(C(=O)NC[C@@H]4CCNC4)n3C)ccc2n1
readout name: IC50
measured result: < 100 nM
--
molecule: Fc1ccc(-c2nc(C3(CN[C@H]4CC4c4ccccc4)CC3)no2)cc1 (stereo partly shown)
readout name: IC50
measured result: ≤ 50 nM
--
molecule: COc1ccc(-n2nc(NCC3CCCNCC3)cc2-c2ccc(C#N)c(F)c2)cc1 (stereo not shown)
readout name: IC50
measured result: < 500 nM

Lab note: next molecule to report on.
Quick check: IC50 on Lysine-specific histone demethylase 1A (Homo sapiens, UniProt O60341), item N#Cc1ccc(-c2nc3c(N4CCC[C@@H](N)C4)ccnc3n2-c2ccc(N3CCCC3)cc2F)cc1F ? 37 nM
